target: Histone deacetylase 3/Nuclear receptor corepressor 2 (HDAC3/NCoR2) (Homo sapiens, UniProt O15379)
Sequence (O15379 whole entry): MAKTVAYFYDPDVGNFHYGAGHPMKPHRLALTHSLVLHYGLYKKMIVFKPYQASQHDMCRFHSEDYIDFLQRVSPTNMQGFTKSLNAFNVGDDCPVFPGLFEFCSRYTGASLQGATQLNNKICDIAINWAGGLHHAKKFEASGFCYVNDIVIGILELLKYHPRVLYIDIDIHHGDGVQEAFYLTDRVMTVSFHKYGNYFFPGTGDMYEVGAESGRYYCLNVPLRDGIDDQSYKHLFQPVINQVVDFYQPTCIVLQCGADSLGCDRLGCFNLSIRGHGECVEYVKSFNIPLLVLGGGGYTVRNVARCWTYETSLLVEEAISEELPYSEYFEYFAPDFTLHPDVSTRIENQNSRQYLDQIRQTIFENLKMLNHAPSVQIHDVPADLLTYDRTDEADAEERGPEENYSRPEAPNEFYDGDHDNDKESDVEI
Sequence (Q9Y618 whole entry, further chain): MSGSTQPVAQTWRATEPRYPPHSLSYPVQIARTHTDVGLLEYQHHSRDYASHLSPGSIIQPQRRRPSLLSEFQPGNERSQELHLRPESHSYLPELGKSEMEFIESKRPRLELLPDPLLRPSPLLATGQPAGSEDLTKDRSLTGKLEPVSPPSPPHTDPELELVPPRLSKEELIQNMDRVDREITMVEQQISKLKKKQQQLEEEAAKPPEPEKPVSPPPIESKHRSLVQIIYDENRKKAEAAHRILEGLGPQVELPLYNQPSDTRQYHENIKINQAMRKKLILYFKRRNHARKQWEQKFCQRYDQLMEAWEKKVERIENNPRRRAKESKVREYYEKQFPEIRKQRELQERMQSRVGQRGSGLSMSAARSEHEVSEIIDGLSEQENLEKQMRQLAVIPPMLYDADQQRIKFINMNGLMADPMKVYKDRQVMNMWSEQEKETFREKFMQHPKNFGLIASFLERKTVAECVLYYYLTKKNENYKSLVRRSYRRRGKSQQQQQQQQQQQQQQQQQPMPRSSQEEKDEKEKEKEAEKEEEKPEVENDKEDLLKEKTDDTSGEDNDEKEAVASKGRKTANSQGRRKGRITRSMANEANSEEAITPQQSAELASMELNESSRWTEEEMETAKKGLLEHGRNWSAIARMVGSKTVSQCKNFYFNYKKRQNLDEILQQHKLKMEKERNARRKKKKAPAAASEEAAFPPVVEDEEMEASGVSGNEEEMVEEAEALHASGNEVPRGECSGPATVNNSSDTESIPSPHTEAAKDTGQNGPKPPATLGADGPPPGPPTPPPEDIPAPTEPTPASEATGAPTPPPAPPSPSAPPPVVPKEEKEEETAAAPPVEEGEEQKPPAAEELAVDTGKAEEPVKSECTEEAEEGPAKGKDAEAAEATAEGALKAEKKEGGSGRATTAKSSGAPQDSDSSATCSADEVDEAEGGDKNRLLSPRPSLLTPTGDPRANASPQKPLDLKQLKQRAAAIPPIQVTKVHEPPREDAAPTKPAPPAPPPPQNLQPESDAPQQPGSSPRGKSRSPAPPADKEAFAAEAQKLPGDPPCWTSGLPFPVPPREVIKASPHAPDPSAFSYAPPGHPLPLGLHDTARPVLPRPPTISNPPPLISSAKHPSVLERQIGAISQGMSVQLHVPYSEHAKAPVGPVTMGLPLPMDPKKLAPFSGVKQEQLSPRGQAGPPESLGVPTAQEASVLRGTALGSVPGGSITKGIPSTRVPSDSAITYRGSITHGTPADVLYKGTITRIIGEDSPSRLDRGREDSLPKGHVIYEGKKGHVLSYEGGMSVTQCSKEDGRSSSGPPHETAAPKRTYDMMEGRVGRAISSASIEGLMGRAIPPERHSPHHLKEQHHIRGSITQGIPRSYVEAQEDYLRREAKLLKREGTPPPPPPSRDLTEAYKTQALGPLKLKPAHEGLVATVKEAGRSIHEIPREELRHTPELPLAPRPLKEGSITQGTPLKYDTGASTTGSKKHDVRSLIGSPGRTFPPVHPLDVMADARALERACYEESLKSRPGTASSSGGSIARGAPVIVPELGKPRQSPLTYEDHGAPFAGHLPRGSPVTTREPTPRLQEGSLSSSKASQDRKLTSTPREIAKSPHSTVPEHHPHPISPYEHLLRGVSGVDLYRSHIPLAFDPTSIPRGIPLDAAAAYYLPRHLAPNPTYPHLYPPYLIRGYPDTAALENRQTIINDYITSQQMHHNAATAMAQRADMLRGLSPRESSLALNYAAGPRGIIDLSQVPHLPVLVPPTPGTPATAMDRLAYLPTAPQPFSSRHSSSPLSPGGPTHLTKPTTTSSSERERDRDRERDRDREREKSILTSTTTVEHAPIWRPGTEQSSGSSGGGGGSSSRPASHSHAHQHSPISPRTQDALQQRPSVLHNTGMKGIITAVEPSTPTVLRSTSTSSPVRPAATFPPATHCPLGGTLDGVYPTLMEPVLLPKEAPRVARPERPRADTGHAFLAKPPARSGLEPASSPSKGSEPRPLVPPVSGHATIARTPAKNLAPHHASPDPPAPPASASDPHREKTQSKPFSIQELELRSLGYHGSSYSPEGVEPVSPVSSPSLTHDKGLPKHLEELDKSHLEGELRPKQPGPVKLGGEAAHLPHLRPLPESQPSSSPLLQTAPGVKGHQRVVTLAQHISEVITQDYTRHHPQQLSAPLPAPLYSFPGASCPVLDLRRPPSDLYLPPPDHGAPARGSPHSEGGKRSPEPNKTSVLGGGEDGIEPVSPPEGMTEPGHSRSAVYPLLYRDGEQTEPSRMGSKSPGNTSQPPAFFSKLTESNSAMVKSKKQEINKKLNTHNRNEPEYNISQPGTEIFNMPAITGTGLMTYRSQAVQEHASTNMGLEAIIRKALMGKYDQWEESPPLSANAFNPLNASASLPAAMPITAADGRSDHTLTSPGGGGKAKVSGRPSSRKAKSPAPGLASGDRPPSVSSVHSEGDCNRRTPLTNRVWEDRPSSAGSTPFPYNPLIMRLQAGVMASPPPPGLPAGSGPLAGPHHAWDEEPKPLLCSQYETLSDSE
Quantity name: IC50
Answers without a unit are incomplete; give the number and then its unit.

Query :: Give its IC50 value. Item: C[C@H](NC(=O)[C@H](CC(=O)NCC(C)(C)C)NC(=O)c1ccc(C(=O)NO)cc1)C(=O)NCc1ccccc1
Result :: 15 µM

---

Biological target: Protein deacetylase HDAC6 (Homo sapiens, UniProt Q9UBN7)
Sequence (Q9UBN7 whole entry): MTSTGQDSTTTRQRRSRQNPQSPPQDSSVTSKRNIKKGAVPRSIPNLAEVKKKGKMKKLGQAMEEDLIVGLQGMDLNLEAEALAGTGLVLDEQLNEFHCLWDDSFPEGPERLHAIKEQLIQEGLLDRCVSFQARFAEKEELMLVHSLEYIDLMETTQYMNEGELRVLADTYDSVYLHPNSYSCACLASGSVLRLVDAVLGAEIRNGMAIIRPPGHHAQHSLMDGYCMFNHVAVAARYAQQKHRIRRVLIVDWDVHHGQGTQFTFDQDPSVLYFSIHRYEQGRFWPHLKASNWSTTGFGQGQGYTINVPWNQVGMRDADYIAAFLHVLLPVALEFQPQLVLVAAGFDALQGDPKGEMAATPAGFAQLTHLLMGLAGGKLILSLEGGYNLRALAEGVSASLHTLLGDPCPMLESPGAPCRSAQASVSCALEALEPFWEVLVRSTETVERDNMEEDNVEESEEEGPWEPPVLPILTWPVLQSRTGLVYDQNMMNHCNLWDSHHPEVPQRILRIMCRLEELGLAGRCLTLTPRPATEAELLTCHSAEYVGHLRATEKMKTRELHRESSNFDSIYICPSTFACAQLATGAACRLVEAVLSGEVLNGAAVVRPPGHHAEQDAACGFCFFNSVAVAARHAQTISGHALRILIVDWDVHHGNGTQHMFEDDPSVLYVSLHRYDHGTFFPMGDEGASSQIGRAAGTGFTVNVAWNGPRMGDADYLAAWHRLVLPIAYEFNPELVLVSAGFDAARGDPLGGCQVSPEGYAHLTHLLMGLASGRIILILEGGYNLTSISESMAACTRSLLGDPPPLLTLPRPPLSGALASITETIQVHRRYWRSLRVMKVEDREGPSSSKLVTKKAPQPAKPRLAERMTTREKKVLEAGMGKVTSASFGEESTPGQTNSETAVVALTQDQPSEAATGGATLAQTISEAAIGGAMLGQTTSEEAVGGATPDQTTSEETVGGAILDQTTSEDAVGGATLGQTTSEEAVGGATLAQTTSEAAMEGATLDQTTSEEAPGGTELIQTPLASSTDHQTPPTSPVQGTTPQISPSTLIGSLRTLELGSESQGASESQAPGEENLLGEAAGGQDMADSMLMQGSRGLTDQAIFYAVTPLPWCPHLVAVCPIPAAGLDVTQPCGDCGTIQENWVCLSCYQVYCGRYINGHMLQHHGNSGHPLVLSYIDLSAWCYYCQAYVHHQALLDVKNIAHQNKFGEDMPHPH
Assay: Inhibition of N-terminal GST-tagged recombinant human HDAC6 expressed in baculovirus infected insect cells using RHKK(Ac)AMC as substrate by fluorescence-based assay
Quantity name: IC50 (nM)
Answer with a number only, understood to be in nM.

Query :: Give its IC50 value. Item: C[C@H](NC(=O)[C@H](CC(=O)NCC(C)(C)C)NC(=O)c1ccc(C(=O)NO)cc1)C(=O)NCc1ccccc1
Result :: 270
